- Test system: A498
- METHOD NOTES: NCI tumour cell line growth inhibition, 48 h
Active and inactive are the calls of the source. Cut-off read from the data, not from the text of the source: active = GI50 up to about 1.1 µM and inactive = higher.
MEASUREMENT KIND: GI50

Some molecules with known GI50 results, for comparison:
MOLECULE	OBSERVED RESULT
Cc1ccc(NC(=O)C(=O)C(C(=O)/C=C/c2ccccc2)C2OC(=O)c3ccccc32)c(C)c1 (stereo not drawn)	> 100 µM (inactive)
Cc1cc(-c2nc3cc(F)ccc3s2)ccc1NC(=O)C(C)N (stereo not drawn)	3.77 µM (inactive)
Cc1[nH]c(=O)nc(N/N=C/c2ccc(O)cc2)c1C(=O)Nc1ccc(Cl)cc1	> 100 µM (inactive)
O=C(Nc1cccc([N+](=O)[O-])c1)/C(=N\NC(=O)c1ccncc1)c1nc2ccc([N+](=O)[O-])cc2nc1O	> 100 µM (inactive)
CNS(=O)(=O)c1ccc2c(c1)/C(=C1/Nc3ccccc3C1=O)C(=O)N2	> 100 µM (inactive)
CC(C)(C)c1cc(COc2cc(COc3ccc(-c4c5c(nc6c4CCc4ccc(-c7c8ccccc8nc8ccccc78)cc4-6)-c4cc(-c6c7ccccc7nc7ccccc67)ccc4CC5)cc3)cc(OCc3cc(C(C)(C)C)cc(C(C)(C)C)c3)c2)cc(C(C)(C)C)c1	> 100 µM (inactive)

Enquiry: Query: GI50; subject: `O=C1C=C(Nc2ccc(S(=O)(=O)Nc3ncccn3)cc2)c2ccccc2C1=O`
Return: 30.3 µM (inactive)

Enquiry: Query: GI50; subject: C=[N+](CNC(=O)CNC(=O)C(Cc1ccccc1)NC(=O)OC(C)(C)C)C(=O)CNC(=O)C(Cc1ccccc1)NC(=O)OC(C)(C)C (stereo not drawn)
Return: > 100 µM (inactive)

Enquiry: Query: GI50; subject: `C[C@]12C=CC(=O)C=C1CC[C@@H]1[C@@H]2CC[C@@]2(C)[C@H]1CC[C@]2(O)C(N)=O`
Return: > 100 µM (inactive)

Enquiry: Query: GI50; subject: COc1ccccc1OCC(COC(=O)Nc1ccc(C)cc1)OC(=O)Nc1ccc(C)cc1 (stereo not drawn)
Return: > 100 µM (inactive)

Enquiry: Query: GI50; subject: `COC(=O)[C@]1(Cc2ccc3ccccc3c2)CCCCCCN1C(=O)c1ccccc1`
Return: > 36.1 µM (inactive)
